# assay.method.text: Metabolic stability in human liver microsomes assessed as parent compound remaining at 1 uM after 15 mins in presence of NADPH by HPLC-MS/MS analysis
# Type: ADME, microsome
# settings: read-out: Stability
readout: remaining at […], 1 µM

Looking for the measured remaining at […], 1 µM of "Clc1ccc(SCc2n[nH]c(-c3ccc(Cl)cc3)n2)cc1" , can you help?
40%

----------
# assay.method.text: Metabolic stability in human plasma assessed as parent compound remaining at 1 uM after 1 hr by HPLC-MS/MS analysis
# Type: ADME, cell-free
# settings: read-out: Stability
readout: remaining at 1 h, 1 µM (%)
Field format: number, assumed %, no unit text.

Looking for the measured remaining at 1 h, 1 µM of "Clc1ccc(SCc2n[nH]c(-c3ccc(Cl)cc3)n2)cc1" , can you help?
85
